assayOverview: Cytotoxicity in PHH natural infection assay (Cell Counting Kit-8)
Type: cell-based
testConditions: HBV-infected primary human hepatocytes, CCK8

[
  {
    "molecule": "O=C(NC1CC2(C1)CC(c1nc3cc(Cl)ccc3o1)C2)c1ccnc(S(=O)(=O)C2CNC2)c1 (centres unmarked)",
    "CC50 at 144 h": "> 10 µM"
  },
  {
    "molecule": "O=C(NC1CC2(C1)CC(c1nc3cc(Cl)ccc3o1)C2)C1CS(=O)(=O)C1 (centres unmarked)",
    "CC50 at 144 h": "96.1 µM"
  },
  {
    "molecule": "O=C(CN1CCCCS1(=O)=O)NC1CC2(C1)CC(c1nc3cc(Cl)ccc3o1)C2 (centres unmarked)",
    "CC50 at 144 h": "> 100 µM"
  },
  {
    "molecule": "O=C(NC1CC2(C1)CC(c1nc3cc(Cl)ccc3o1)C2)C1CCN(C(=O)C2CCC2)C1 (centres unmarked)",
    "CC50 at 144 h": "> 10 µM"
  },
  {
    "molecule": "O=C(NC1CC2(C1)CC(c1nc3cc(Cl)ccc3o1)C2)c1cccnc1 (centres unmarked)",
    "CC50 at 144 h": "68.3 µM"
  },
  {
    "molecule": "O=C(NC1CC2(C1)CC(c1nc3cc(Cl)ccc3o1)C2)c1ccccn1 (centres unmarked)",
    "CC50 at 144 h": "74.8 µM"
  },
  {
    "molecule": "CCS(=O)(=O)c1cc(C(=O)N(C)C2CC3(CC(c4nc5cc(Cl)ccc5o4)C3)C2)ccn1 (centres unmarked)",
    "CC50 at 144 h": "> 10 µM"
  },
  {
    "molecule": "Cc1csc(-c2cc(C(=O)NC3CC4(C3)CC(c3nc5cc(Cl)ccc5o3)C4)ccn2)n1 (centres unmarked)",
    "CC50 at 144 h": "> 10 µM"
  },
  {
    "molecule": "CC1(C(=O)NC2CC3(C2)CC(c2nc4cc(Cl)ccc4o2)C3)CCS(=O)(=O)C1 (centres unmarked)",
    "CC50 at 144 h": "> 100 µM"
  },
  {
    "molecule": "CN(C)c1cc(C(=O)NC2CC3(C2)CC(c2nc4cc(Cl)ccc4o2)C3)ccn1 (centres unmarked)",
    "CC50 at 144 h": "> 100 µM"
  },
  {
    "molecule": "O=C(NC1CC2(C1)CC(c1nc3cc(Cl)ccc3o1)C2)C1CC2(C1)CS(=O)(=O)C2 (centres unmarked)",
    "CC50 at 144 h": "> 100 µM"
  },
  {
    "molecule": "CCCNC(=O)NC1CC2(C1)CC(c1nc3cc(Cl)ccc3o1)C2 (centres unmarked)",
    "CC50 at 144 h": "> 100 µM"
  },
  {
    "molecule": "CCNC(=O)NC1CC2(C1)CC(c1nc3cc(Cl)ccc3o1)C2 (centres unmarked)",
    "CC50 at 144 h": "> 100 µM"
  },
  {
    "molecule": "O=C(NC1CC2(C1)CC(c1nc3cc(Cl)ccc3o1)C2)c1ccnc(NC2CC2)c1 (centres unmarked)",
    "CC50 at 144 h": "> 10 µM"
  },
  {
    "molecule": "[H][C@]1(NC(=O)C2CCS(=O)(=O)CC2)C[C@]2(C1)C[C@]([H])(c1nc3cc(Cl)ccc3o1)C2 (single isomer, unassigned) [Example 82a]",
    "CC50 at 144 h": "> 100 µM"
  },
  {
    "molecule": "O=C(NC1CC2(C1)CC(c1nc3ncccc3o1)C2)C1CCS(=O)(=O)C1 (centres unmarked)",
    "CC50 at 144 h": "> 100 µM"
  },
  {
    "molecule": "CN1C(C(=O)NC2CC3(C2)CC(c2nc4cc(Cl)ccc4o2)C3)CCS1(=O)=O (centres unmarked)",
    "CC50 at 144 h": "> 10 µM"
  }
]

Hello, the source for this data is patent US20230286968A1, in case you need it.
